Each entry below lists one item and its recorded protein stability index value.
- test: protein stability index of a GFP-peptide fusion (GPS, HEK-293T) (PSI 1-6); higher = more stable;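 also: 24-mer peptide tiles fused after GFP, lentivirally expressed, FACS-sorted into six equal bins by GFP/DsRed ratio, decoded by Illumina sequencing, PSI is the read-weighted mean bin number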
- measurementConditions: treatment: DMSO; c terminus: a fixed tail appended
Reply with just the number.

Below, 2 sequences whose answers are already recorded.
seqText: PASSRNRSPSGSLRSARGSRGGTR [RBMY1A1]
attributeMeasured: protein stability index
measuredValue: 5.14

seqText: ERCLHMFLQEEAIDRNYVPGKSLA [SNX12]
attributeMeasured: protein stability index
measuredValue: 2.97

Query: Give its protein stability index value. Item: KYESVLQLGRALTAHLYSLLQTQH [ARFIP2]
Response: 3.09

Query: For PAPALCCAPYDSRLLGSARPELGA [IRX6] , what is its reported protein stability index?
Response: 3.08

Query: Tell me the measured protein stability index of ERVEALGQFVMKTRRTLKGHGNKV [GNB5] , please.
Response: 3.09
